testedOn: Gal(a1-3)Gal(b1-4)GlcNAc(b1-6)GalNAc
assayDetails: glycan array binding signal (z-score within array); higher = stronger binding
conditionSet: glycan notation: IUPAC condensed, linker removed
Shown is part of a subset that was picked to be rich in the strongest signals.
Threshold rule: glycan array binding signal (z-score) greater than or equal to -0.1 is T; below that, F.

Worked set:
OS9-MRH (Homo sapiens), Q13438 (protein) IPELLSPMRDAPCLLKTKDWWTYEFCYGRHIQQYHMEDSEIKGEVLYLGYYQSAFDWDDETAKASKQHRLKRYHSQTYGNGSKCDLNGRPREAEVRFLCDEGAGISGDYIDRVDEPLSCSYVLTIRTPRLCPHPLLRPPPSAAPQAI; T
Cohesin-hDCIR (Homo sapiens) (protein) LDDLDAVRIKVDTVNAKPGDTVRIPVRFSGIPSKGIANCDFVYSYDPNVLEIIEIEPGDIIVDPNPDKSFDTAVYPDRKIIVFLFAEDSGTGAYAITKDGVFATIVAKVKEGAPNGLSVIKFVEVGGFANNDLVEQKTQFFDGGANVGDTTEPATPTTPVTTPTTTDDLDAASQKYSQLLEKKTTKELVHTTLECVKKNMPVEETAWSCCPKNWKSFSSNCYFISTESASWQDSEKDCARMEAHLLVINTQEEQDFIFQNLQEESAYFVGLSDPEGQRHWQWVDQTPYNESSTFWHPREPSDPNERCVVLNFRKSPKRWGWNDVNCLGPQRSVCEMMKIHLHHHHHH; T
LlpA1 (Pseudomonas fluorescens), Q4KHC3 (protein) MGSSHHHHHHSSGLVPRGSHMAWIRYDFTDNGSSVLPARYYMAPNQYLQSPNKRFKLLFQADGNLALYDGAQLAWVADQNTPFTNVSKGNKKDPMMVFMNYGFVLDDPLRGRIWSTTPSDPTMGSREDASLRAFTQVQDDGNIVTVDTIPHWYAPNGRVFTPAVGAAMIIGGTTELVPGQFYSAGEHSLVFQGDGNLVVYGPNSSVIWATYTQNKGGVRCVMQEDGNLVIYAANNGVVWQSGTGGHPGATIRLQANGSFTIVTERPVWARFGYTPTIKPPRVFYPDHKWKTGSYTWNNVF; T
AT5G01260(PC)(40) (Arabidopsis thaliana), Q9LFB0 (protein) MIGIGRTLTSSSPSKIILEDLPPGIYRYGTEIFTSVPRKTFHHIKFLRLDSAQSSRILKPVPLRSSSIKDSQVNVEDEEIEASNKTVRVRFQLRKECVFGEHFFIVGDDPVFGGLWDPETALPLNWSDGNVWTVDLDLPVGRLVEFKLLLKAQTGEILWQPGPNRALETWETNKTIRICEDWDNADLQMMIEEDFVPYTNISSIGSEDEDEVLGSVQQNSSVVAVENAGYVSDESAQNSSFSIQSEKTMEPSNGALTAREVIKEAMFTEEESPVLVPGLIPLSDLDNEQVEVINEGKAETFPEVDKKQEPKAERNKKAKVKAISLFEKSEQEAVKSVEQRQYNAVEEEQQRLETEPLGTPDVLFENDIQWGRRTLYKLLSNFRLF; F
OS9 (Arabidopsis thaliana) (protein) MRGSHHHHHHGMASMTGGQQMGRDLYDDDDKSRLQIFPAHLVGTFSRNNREPKYKIEFLPEDSPFHPGDNLESMVMLDKHGNRFLCYLPKEEKATSGWTSSQQNISTVMMETQQLVKLKTPDELLQPLSEKCLFRQEGWWSYEFCHQKYVRQLHVEDENKIVQEFFLGTFDPEATAAFNQTVSDASTDASQRYHSHVYTNGTTCDLTGSPREVEVRFVCAETRAMVTSITELSTCKYALTVQCPTLCKHPLFQLEKPVSHTIHCNAIPVEEDATRNKEEQAVDESPKMIADS; T

Query: Does AT1G73650(15) (Arabidopsis thaliana), F4HRY1 (protein) MGTVLDSHFLALTAIVTVIYQFIFFVITALFKFDQVTDFAGSTNFVILAVLTLVLKASWHFRQIVLTLLVVVWGLRLGIFLLMETRILQWGEDRRFDEQRGNIVRLIIFWTLQAVWVWTVSLPLTLVNASDGGGSLKPADVIGWTMETWVFGFLIEAAADQQKLSFKNSPENRGKWCDVGVWKYSRHPNYFGEMETLLWWGIFVAASPVLEGAEYLVIFGPLFLTLLLLFVSGIPLLEASADKKHGNSGAYRSYKKTTSPLILFPRGVYGNLPGWFKTVFLFEFPFYSRNLPQEGRLQNSKEKEVKDD have a reported glycan array binding signal (z-score) of at least -0.1?
Reply: F

Query: Does CPA (Cicer arietinum) (protein) MAFSYLNLVLVTLTTLFFLQTTKVKSQKSVSFHITNFTISRPSITLQGTAEFLPNVLLLNDIEHPVFVVGRALYSKPITLWNNKTGKVASFVTSFTFDVQDLKKTVPGHGLVFFLAPSGSEIPFSSDGGNLGVVDGKNAFNRFVGVEFDNFVNSWDPKYSHVGINVNSLISTKTVKWNRVSGELVKVSIVYDSVSTTLTVIVTYKNGQISILSQLVDLKAVLPDTVNIGFSASTTLVSPRQLHNIHSWSFTSTFET have a reported glycan array binding signal (z-score) of at least -0.1?
Reply: F

Query: Does Cohesin-mDCIR (Macaca mulatta) (protein) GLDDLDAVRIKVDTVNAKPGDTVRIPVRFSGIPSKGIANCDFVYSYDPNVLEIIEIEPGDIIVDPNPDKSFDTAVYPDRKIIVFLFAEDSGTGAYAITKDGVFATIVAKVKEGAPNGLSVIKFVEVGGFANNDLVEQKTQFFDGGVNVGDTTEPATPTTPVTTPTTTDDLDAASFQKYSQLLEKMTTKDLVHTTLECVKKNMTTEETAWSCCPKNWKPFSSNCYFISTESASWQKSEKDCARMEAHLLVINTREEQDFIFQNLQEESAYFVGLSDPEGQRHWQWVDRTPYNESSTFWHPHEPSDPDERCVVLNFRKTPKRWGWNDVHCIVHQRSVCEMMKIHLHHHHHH have a reported glycan array binding signal (z-score) of at least -0.1?
Reply: T

Query: Does KISKRILTGKK [NK11 (Sus scrofa)] have a reported glycan array binding signal (z-score) of at least -0.1?
Reply: F
